Provide the recorded log10 of IC50 for the entries that follow.
runDescription: Inhibition of Staphylococcus aureus TMK assessed as decrease in ATP production using dTDP and ADP as substrate after 3.5 hrs by luciferin/luciferase based luminescence analysis
In our notation, the value equals log10 of IC50 in nM.

Below: 5 compounds and their reported log10 of IC50.
[[record]]
smilesrepresentation = "Cc1cn([C@H]2CCCN(Cc3cccc(Oc4cc(F)cc(Cl)c4)c3Br)C2)c(=O)[nH]c1=O"
numericreadout = 2.76

[[record]]
smilesrepresentation = "Cc1c(CN2CCC[C@H](n3cc(C)c(=O)[nH]c3=O)C2)cccc1Oc1cc(F)cc(Cl)c1"
numericreadout = 3.97

[[record]]
smilesrepresentation = "Cc1cn([C@H]2CCCN(Cc3cccc(Oc4cccc(Cl)c4)c3C#N)C2)c(=O)[nH]c1=O"
numericreadout = 3.08

[[record]]
smilesrepresentation = "CCCc1c(CN2CCC[C@H](n3cc(C)c(=O)[nH]c3=O)C2)cccc1Oc1cc(F)cc(Cl)c1"
numericreadout = 4.83

[[record]]
smilesrepresentation = "CC[C@@H](c1ccc(C(=O)O)c(Oc2cccc(Cl)c2)c1F)N1CCC[C@H](n2cc(C)c(=O)[nH]c2=O)C1"
numericreadout = 0.48


For each listed entry, give its log10 of IC50.
1. CCC[C@H](c1ccc(C(=O)O)c(Oc2cccc(Cl)c2)c1)N1CCC[C@H](n2cc(C)c(=O)[nH]c2=O)C1
2. Cc1cn([C@H]2CCCN(Cc3cccc(Oc4cc(F)cc(Cl)c4)c3Cl)C2)c(=O)[nH]c1=O
3. Cc1cn([C@H]2CCCN(Cc3ccc(C(=O)O)c(Oc4cccc(Cl)c4)c3)C2)c(=O)[nH]c1=O

1. 0.90
2. 2.89
3. 1.86

---

runDescription: Inhibition of Staphylococcus aureus TMK assessed as decrease in ATP production using dTDP and ADP as substrate after 3.5 hrs by luciferin/luciferase based luminescence analysis
Provide the recorded IC50 for the entries that follow.

[[record]]
smilesrepresentation = "Cc1cn([C@H]2CCCN(Cc3cccc(Oc4cccc(Cl)c4)c3)C2)c(=O)[nH]c1=O"
valuetype = "IC50"
result = "1170 nM"

[[record]]
smilesrepresentation = "Cc1cn([C@H]2CCCN(Cc3cccc(Oc4cc(F)cc(Cl)c4)c3)C2)c(=O)[nH]c1=O"
valuetype = "IC50"
result = "2060 nM"

[[record]]
smilesrepresentation = "CCOc1c(CN2CCC[C@H](n3cc(C)c(=O)[nH]c3=O)C2)cccc1Oc1cc(F)cc(Cl)c1"
valuetype = "IC50"
result = "625 nM"


Which IC50 value is on record for CC[C@H](c1ccc(C(=O)O)c(Oc2cccc(Cl)c2)c1F)N1CCC[C@H](n2cc(C)c(=O)[nH]c2=O)C1 ?
2 nM

---

runDescription: Fraction unbound in human plasma at 10 uM after 5 hrs by rapid equilibrium dialysis method
Assay type: ADME, cell-free
Hi, to clarify the labels: true covers fraction unbound at 5 h, 10 µM from 0.03 upward, false covers anything below 0.03.

[[record]]
smilesrepresentation = "Cc1cn([C@H]2CCCN([C@H](CC(C)(C)C)c3ccc(C(=O)O)c(Oc4cccc(Br)c4)c3)C2)c(=O)[nH]c1=O"
label = "true"

[[record]]
smilesrepresentation = "CC[C@H](c1ccc(C(=O)O)c(Oc2cccc(Cl)c2)c1F)N1CCC[C@H](n2cc(C)c(=O)[nH]c2=O)C1"
label = "false"

[[record]]
smilesrepresentation = "CCC[C@H](c1ccc(C(=O)O)c(Oc2cccc(Cl)c2)c1F)N1CCC[C@H](n2cc(C)c(=O)[nH]c2=O)C1"
label = "false"


Please check the record CC[C@@H](c1ccc(C(=O)O)c(Oc2cccc(Cl)c2)c1F)N1CCC[C@H](n2cc(C)c(=O)[nH]c2=O)C1 and state if its fraction unbound at 5 h, 10 µM is at or above 0.03.
false

Please check the record CC[C@H](c1ccc(C(=O)O)c(Oc2cccc(Cl)c2)c1OC)N1CCC[C@H](n2cc(C)c(=O)[nH]c2=O)C1 and state if its fraction unbound at 5 h, 10 µM is at or above 0.03.
false

Please check the record Cc1cn([C@H]2CCCN([C@H](CC(C)C)c3ccc(C(=O)O)c(Oc4cccc(Cl)c4)c3F)C2)c(=O)[nH]c1=O and state if its fraction unbound at 5 h, 10 µM is at or above 0.03.
false

Please check the record CC[C@@H](c1ccc(C(=O)O)c(Oc2cccc(Cl)c2)c1OC)N1CCC[C@H](n2cc(C)c(=O)[nH]c2=O)C1 and state if its fraction unbound at 5 h, 10 µM is at or above 0.03.
true
